- EXPERIMENTAL DETAILS: Inhibition of beta-lactamase CTX-M using nitrocefin as substrate
- CONDITION INFO: read-out: Ki
Give pKi for every item shown.
Numbers only, as −log10 of the molar value.

Known results for compounds:
O=C(Nc1cccc(-c2nnn[nH]2)c1)c1ccc2[nH]ccc2c1 = 5.72
CC(=O)c1cccc(C(=O)Nc2cccc(-c3nnn[nH]3)c2)c1 = 4.99
Cc1cccc(C(=O)Nc2cccc(-c3nnn[nH]3)c2)c1 = 5.35

Field: pKi. Fill in for each record below.
1. O=C(Nc1cccc(-c2nnn[nH]2)c1)c1cccc([N+](=O)[O-])c1
2. N#Cc1cccc(C(=O)Nc2cccc(-c3nnn[nH]3)c2)c1

1. 5.42
2. 5.14
